The measurements presented in this section are drawn from the RNAGym collection of RNA variant scans (doi:10.1073/pnas.2313332121).

B1: TPR 5TU (parent)
chain: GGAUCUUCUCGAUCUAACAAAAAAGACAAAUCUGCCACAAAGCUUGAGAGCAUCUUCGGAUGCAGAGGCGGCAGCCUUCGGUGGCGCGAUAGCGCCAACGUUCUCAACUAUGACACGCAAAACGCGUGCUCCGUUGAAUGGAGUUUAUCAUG

- Variants of: B1
- experimental details: polymerase ribozyme fitness, log enrichment relative to wild type (log ratio); higher = more active; in vitro selection for triplet polymerase activity
Fewer inactive variants are shown than the library holds.
Kindly state polymerase ribozyme fitness (log ratio) for each of the entries shown.
Give bare numbers.

variant code	polymerase ribozyme fitness (log ratio)
A19U A21U G86A C103U	-2.31
U45G C114U	-2.91
C54U U55G U82G	-1.38
A19U C96A	-0.531
C57A G92U	-0.638

Would you mind listing polymerase ribozyme fitness (log ratio) for each of the following variants?
1. G11A U134A
2. A23G C27U A29C C32A C36G C85U C95A U127G
3. U4A C14G A40G
4. A26C C85U
5. A39C A52G C123G

Output:
-3.6
-4.14
-3.69
-1.86
-2.84

Would you mind listing polymerase ribozyme fitness (log ratio) for each of the following variants?
1. U55G A60G C79U A119C
2. U82C C85A U145C

Output:
1: -2.12; 2: 0.554
